This collection of values is drawn from PubChem BioAssay AID492989.

molecular target: Tyrosyl-DNA phosphodiesterase 1 (Homo sapiens); test: Gel-Based Assay for Inhibitors of Tyrosyl-DNA Phosphodiesterase (TDP1); details: recombinant TDP1, 32P-DNA substrate gel cleavage
Calls of active or inactive are those of the source.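 Rule for the calls: active = clear inhibition seen at one or more tested concentrations; inactive = basal response, no inhibition.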
Outcome codes: active, inactive

smilesStructure: CN1CCN(c2cccc(Nc3nn4c(=O)c5ccccc5nc4s3)c2)CC1
answerLabel: inactive
--
smilesStructure: Cc1cccc(Nc2nn3c(=O)c4ccccc4nc3s2)c1
answerLabel: active
--
smilesStructure: O=c1c2ccccc2nc2sc(Nc3cccc(Br)c3)nn12
answerLabel: inactive
--
smilesStructure: O=c1c2ccccc2nc2sc(Nc3ccc4c(c3)OCO4)nn12
answerLabel: active
--
smilesStructure: O=c1c2ccc(Br)cc2nc2sc(Nc3ccc4c(c3)CCC4)nn12
answerLabel: active
--
smilesStructure: O=c1c2ccccc2nc2sc(Nc3ccc4c(c3)CCC4)nn12
answerLabel: active
--
smilesStructure: O=c1c2ccccc2nc2sc(Nc3cccc4ccccc34)nn12
answerLabel: active
--
smilesStructure: COc1ccc2c(=O)n3nc(Nc4ccc5c(c4)CCC5)sc3nc2c1
answerLabel: active
--
smilesStructure: O=c1c2ccccc2nc2sc(Nc3cccc(C(F)(F)F)c3)nn12
answerLabel: inactive
--
smilesStructure: CN(c1ccc2c(c1)CCC2)c1nn2c(=O)c3ccccc3nc2s1
answerLabel: inactive
--
smilesStructure: O=c1c2ccc([N+](=O)[O-])cc2nc2sc(Nc3ccc4c(c3)CCC4)nn12
answerLabel: active
--
smilesStructure: O=c1c2ccccc2nc2sc(Nc3cccc(-c4ccncc4)c3)nn12
answerLabel: active
--
smilesStructure: O=c1c2ccc(C(F)(F)F)cc2nc2sc(Nc3ccc4c(c3)CCC4)nn12
answerLabel: active
--
smilesStructure: CN(C)c1ccc2c(=O)n3nc(Nc4ccc5c(c4)CCC5)sc3nc2c1
answerLabel: inactive
--
smilesStructure: CC(C)N1Cc2ccc(Nc3nn4c(=O)c5ccccc5nc4s3)cc2C1
answerLabel: active
--
smilesStructure: CCc1cccc(Nc2nn3c(=O)c4ccccc4nc3s2)c1
answerLabel: inactive
--
smilesStructure: O=c1c2ccccc2nc2sc(Nc3ccccc3)nn12
answerLabel: active
--
smilesStructure: Nc1ccc2c(=O)n3nc(Nc4ccc5c(c4)CCC5)sc3nc2c1
answerLabel: inactive
